Each recorded value in this set is attributed to patent US20230105029A1.

biological target: human IL4Rα expressed on HEK293T-IL4Rα-STAT6-STAT6LUC-LB2 cells (human, UniProt P24394 26-825); experiment: cell-based or functional assay
Endpoint Name: Inhibition on IL13 induced STAT6 phosphorylation (IC50, nM)
Give the quantity in nM, number only.

Task: Field request: Inhibition on IL13 induced STAT6 phosphorylation (IC50, nM) | item: mouse antibody B9D1D11F8D8 (antibody, V domains shown, Mouse hybridoma mAb) VH: EVKLVESGGGLVKPGGSLKLSCAASGFTFSSYAMSWVRQTPEKRLEWVASISSGDSTYYLDSVKGRFTISRDNARNILYLQVSSLRSEDTAMYYCERSGGSAPYWGQGTLVTVSA VL: QIVLTQSPAIMSASPGDMVTISCSASSSVNYMYWYQQKPGSSPKPWIYRTSNLASGVPARFSGSGSGTSYSLTISSMEAEDAATYYCQQYHSFPLTFGAGTKLELK
Result: 0.36
